- Test system: HIV-1NL4-3
- Assay summary: P4-MAGI assay
- Format: cell-based
- Conditions: Human immunodeficiency virus 1, 24 h, P4 cells, 24 hour incubation, β-galactosidase expression; read-out: P4-MAGI IC50
# pIC50 per record follows
# pIC50: negative log10 of molar concentration; output just the value

Field: example entries. Status: answers known.
C=C(C)[C@@H]1CC[C@]2(C(=O)NCCc3cccc(C(=O)NCc4ccc(C#N)cn4)c3)CC[C@]3(C)C(CCC4[C@@]5(C)CC[C@H](O)C(C)(C)C5CC[C@]43C)C12 (stereo partly shown) = 7.60
C=C(C)[C@@H]1CC[C@]2(C(=O)NCc3cc(C(=O)NCCc4cccc(C(=O)O)c4)ccc3F)CC[C@]3(C)C(CCC4[C@@]5(C)CC[C@H](O)C(C)(C)C5CC[C@]43C)C12 (stereo partly shown) = 7.63
C=C(C)[C@@H]1CC[C@]2(C(=O)NCCc3cccc(C(=O)NCc4ccc(C(=O)NCc5ncccc5C(=O)OC)cc4)c3)CC[C@]3(C)C(CCC4[C@@]5(C)CC[C@H](O)C(C)(C)C5CC[C@]43C)C12 (stereo partly shown) = 8.10
C=C(C)[C@@H]1CC[C@]2(C(=O)NCCc3cccc(C(=O)NCc4ccc(OCCCn5cnc(C(=O)OC)c5)cc4)c3)CC[C@]3(C)C(CCC4[C@@]5(C)CC[C@H](O)C(C)(C)C5CC[C@]43C)C12 (stereo partly shown) = 7.74

QUERY: For the molecule shown here, C=C(C)[C@@H]1CC[C@]2(C(=O)NCCc3cccc(C(=O)NCc4ccc(C(=O)NC(CO)C(=O)O)cc4)c3)CC[C@]3(C)C(CCC4[C@@]5(C)CC[C@H](O)C(C)(C)C5CC[C@]43C)C12 (stereo partly shown) , give the reported pIC50.
RESULT: 7.85

QUERY: Name the recorded pIC50 for C=C(C)[C@@H]1CC[C@]2(C(=O)NCCc3cccc(C(=O)N[C@H](C)C4CCC(C(=O)O)CC4)c3)CC[C@]3(C)C(CCC4[C@@]5(C)CC[C@H](O)C(C)(C)C5CC[C@]43C)C12 (stereo partly shown) .
RESULT: 7.66

QUERY: Which measured pIC50 value corresponds to C=C(C)[C@@H]1CC[C@]2(C(=O)NCCc3cccc(C(=O)NCc4ccc(C(=O)O)o4)c3)CC[C@]3(C)C(CCC4[C@@]5(C)CC[C@H](O)C(C)(C)C5CC[C@]43C)C12 (stereo partly shown) ?
RESULT: 7.29

QUERY: Reported pIC50, molecule C=C(C)[C@@H]1CC[C@]2(C(=O)NCc3cccc(C(=O)NCCc4ccc(F)c(C(=O)OC)c4)c3)CC[C@]3(C)C(CCC4[C@@]5(C)CC[C@H](O)C(C)(C)C5CC[C@]43C)C12 (stereo partly shown) : ____
RESULT: 6.87

QUERY: Would you kindly share the measured pIC50 for C=C(C)[C@@H]1CC[C@]2(C(=O)NCCc3cccc(C(=O)NC4CCC(C(=O)O)CC4)c3)CC[C@]3(C)C(CCC4[C@@]5(C)CC[C@H](O)C(C)(C)C5CC[C@]43C)C12 (stereo partly shown) ?
RESULT: 6.45

QUERY: Find the recorded pIC50 belonging to C=C(C)[C@@H]1CC[C@]2(C(=O)N[C@@H](Cc3ccc(OCCCCC(=O)O)cc3)C(=O)O)CC[C@]3(C)C(CCC4[C@@]5(C)CC[C@H](O)C(C)(C)C5CC[C@]43C)C12 (stereo partly shown) and report it.
RESULT: 5.00
